# system: unphosphorylated-BTK kinase domain (UP-BTK), GST-tagged human BTK (389-659aa) (Homo sapiens (Human), UniProt Q06187)
# Sequence (Q06187 389-659): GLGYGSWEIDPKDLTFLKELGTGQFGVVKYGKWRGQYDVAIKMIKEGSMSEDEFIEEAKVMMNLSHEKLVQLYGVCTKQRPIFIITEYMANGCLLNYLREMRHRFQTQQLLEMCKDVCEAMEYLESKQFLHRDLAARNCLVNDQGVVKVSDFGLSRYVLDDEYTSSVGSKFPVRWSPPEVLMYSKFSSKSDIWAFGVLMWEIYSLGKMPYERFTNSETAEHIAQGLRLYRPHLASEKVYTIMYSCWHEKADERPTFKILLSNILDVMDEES
# test-protocol: BTK kinase Lanthascreen binding assay
# assay-context: Lanthascreen tracer competition, 60 minutes incubation; pIC50 = negative log of the IC50 in molar
Everything with BTK_I_binding pIC50 lower than 7 is NOT MET; everything else, including exactly 7, is MET.

Worked cases, answers included:
Cc1cc(Oc2ccccc2)ccc1N1C(=O)Nc2c(C(=O)NC3CCN(C)CC3)sc3nccc1c23 [Example 858] : MET
C=CC(=O)N1CC[C@@H](NC(=O)c2sc3nccc4c3c2NC(=O)N4c2cnc(Oc3ccccc3)cc2C)C1 (single isomer, unassigned) [Example 663] : MET
Cc1cc(Oc2ccccc2)ccc1N1C(=O)Nc2c(NC(=O)C3CCN(C#N)CC3)sc3nccc1c23 [Example 822] : NOT MET
C=CC(=O)N1CCC[C@@H](NC(=O)c2sc3nccc4c3c2NC(=O)N4c2ccnc(C3CCCCC3)c2)C1 [Example 677] : MET

Q: // inclusive: BTK_I_binding pIC50 at least 7? input: CC(C)(C)OC(=O)N1C[C@H](NC(=O)c2sc3nccc4c3c2NC(=O)N4c2ccc(Oc3ccccc3)cc2)[C@@H](F)C1 [Example 625]
Ans: NOT MET

Q: Next molecule up: Cc1cc(Oc2ccccc2)ccc1N1C(=O)Nc2c(NC(=O)C3CCCN(C#N)C3)sc3nccc1c23 (centres unmarked) [Example 802]
Ans: NOT MET

Q: Also need O=C(N[C@@H]1CCNC1)c1sc2nccc3c2c1NC(=O)N3c1ccnc(-c2ccccc2)c1 [Example 602] , thanks.
Ans: NOT MET

Q: Follow-up entry: O=C(N[C@@H]1CCCNC1)c1sc2nccc3c2c1NC(=O)N3c1cccc(-c2ccccn2)c1 [Example 622]
Ans: NOT MET
